The measurements presented in this section are drawn from patent US20260184697A1.

assayed.target: EZH1/SUZ/EED (Homo sapiens, UniProt O75530+Q15022+Q92800)
Sequence (Q92800 2-747 limits assumed): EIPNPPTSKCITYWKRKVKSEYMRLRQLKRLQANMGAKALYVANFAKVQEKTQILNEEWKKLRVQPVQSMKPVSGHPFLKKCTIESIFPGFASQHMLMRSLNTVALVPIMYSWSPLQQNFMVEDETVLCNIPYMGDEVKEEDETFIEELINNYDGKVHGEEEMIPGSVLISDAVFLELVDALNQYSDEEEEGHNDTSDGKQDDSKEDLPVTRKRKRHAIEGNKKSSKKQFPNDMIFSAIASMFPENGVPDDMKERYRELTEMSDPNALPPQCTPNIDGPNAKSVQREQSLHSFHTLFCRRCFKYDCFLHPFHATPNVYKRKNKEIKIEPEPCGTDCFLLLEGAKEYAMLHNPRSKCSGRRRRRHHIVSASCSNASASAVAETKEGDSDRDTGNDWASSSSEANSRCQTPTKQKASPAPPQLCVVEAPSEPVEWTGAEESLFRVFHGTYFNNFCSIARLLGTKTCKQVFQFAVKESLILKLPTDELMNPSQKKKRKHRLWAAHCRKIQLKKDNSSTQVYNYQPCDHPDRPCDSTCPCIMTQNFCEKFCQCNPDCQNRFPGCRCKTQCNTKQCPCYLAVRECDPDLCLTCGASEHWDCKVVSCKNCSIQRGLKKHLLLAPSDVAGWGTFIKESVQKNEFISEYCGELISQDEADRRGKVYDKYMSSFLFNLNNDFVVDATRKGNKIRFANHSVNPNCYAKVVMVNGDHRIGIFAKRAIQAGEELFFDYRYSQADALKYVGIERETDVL
Sequence (Q15022 2-739 partner limits assumed): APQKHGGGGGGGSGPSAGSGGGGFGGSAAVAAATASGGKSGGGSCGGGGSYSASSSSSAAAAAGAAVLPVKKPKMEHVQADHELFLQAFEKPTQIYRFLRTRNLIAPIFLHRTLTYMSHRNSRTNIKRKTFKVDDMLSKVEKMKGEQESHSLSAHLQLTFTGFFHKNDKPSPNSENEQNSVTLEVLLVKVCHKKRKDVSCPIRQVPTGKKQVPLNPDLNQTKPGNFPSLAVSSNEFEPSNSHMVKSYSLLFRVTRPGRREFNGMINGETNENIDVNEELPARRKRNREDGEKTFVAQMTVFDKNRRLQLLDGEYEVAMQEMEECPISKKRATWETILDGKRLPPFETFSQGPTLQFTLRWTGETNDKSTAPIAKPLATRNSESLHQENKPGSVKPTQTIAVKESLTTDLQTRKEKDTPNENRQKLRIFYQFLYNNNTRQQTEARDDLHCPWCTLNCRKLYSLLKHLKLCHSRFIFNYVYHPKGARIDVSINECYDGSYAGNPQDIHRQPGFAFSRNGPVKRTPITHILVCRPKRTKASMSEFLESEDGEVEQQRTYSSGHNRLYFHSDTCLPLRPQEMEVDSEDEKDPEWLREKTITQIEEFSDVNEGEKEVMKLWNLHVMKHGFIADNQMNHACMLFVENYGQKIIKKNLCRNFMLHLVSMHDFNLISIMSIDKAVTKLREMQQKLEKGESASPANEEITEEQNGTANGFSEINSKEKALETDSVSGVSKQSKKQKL
Sequence (O75530 2-441 partner limits assumed): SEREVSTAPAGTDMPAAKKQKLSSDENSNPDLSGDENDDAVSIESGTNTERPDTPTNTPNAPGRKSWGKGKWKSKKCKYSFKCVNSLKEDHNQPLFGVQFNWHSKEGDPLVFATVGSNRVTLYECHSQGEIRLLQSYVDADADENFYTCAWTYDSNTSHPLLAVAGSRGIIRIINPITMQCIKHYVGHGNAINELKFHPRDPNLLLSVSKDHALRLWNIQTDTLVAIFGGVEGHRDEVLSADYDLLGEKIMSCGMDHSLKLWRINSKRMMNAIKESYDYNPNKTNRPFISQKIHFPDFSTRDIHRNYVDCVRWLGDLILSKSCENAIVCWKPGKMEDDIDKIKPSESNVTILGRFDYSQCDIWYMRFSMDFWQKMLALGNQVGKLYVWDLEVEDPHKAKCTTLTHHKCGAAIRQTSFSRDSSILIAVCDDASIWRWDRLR
assay.notes: Inhibitory effect on EZH1 by the MTase-Glo method (Test Example 1)
settings: EZH1/SUZ/EED 25 nM, H3 peptide 10 μM, SAM 3 μM, 30° C. 3 h, read-out: Test Example 1 WT EZH1 IC50
measure.name: pIC50
As a rule, pIC50 stands for the negative log10 of the concentration, concentration in M.

Q: So what pIC50 did Cc1cc(C)c(CNC(=O)c2cc(Cl)c3c(c2C)O[C@@H]([C@H]2CC[C@@H](N4CC5COCC5C4)CC2)CO3)c(=O)[nH]1 (stereo partly drawn) get with EZH1/SUZ/EED (Homo sapiens, UniProt O75530+Q15022+Q92800)?
A: 6.71

Q: Form field: pIC50 recorded for Cc1cc(Cl)c(CNC(=O)c2cc(Cl)c3c(c2C)O[C@@H]([C@H]2CC[C@H](N(C)C)CC2)CO3)c(=O)[nH]1 with EZH1/SUZ/EED (Homo sapiens, UniProt O75530+Q15022+Q92800) (enter value)
A: 8.14

Q: Look up pIC50 with EZH1/SUZ/EED (Homo sapiens, UniProt O75530+Q15022+Q92800) for this compound: Cc1cc(C)c(CNC(=O)c2cc(Cl)c3c(c2Cl)O[C@@H]([C@H]2CC[C@@H](N(C)C)CC2)CO3)c(=O)[nH]1
A: 7.40
